Data provenance is PubChem BioAssay.

Assayed Target: Steroidogenic factor 1 (Homo sapiens) (UniProt Q13285)
Sequence (Q13285 whole entry, looked up): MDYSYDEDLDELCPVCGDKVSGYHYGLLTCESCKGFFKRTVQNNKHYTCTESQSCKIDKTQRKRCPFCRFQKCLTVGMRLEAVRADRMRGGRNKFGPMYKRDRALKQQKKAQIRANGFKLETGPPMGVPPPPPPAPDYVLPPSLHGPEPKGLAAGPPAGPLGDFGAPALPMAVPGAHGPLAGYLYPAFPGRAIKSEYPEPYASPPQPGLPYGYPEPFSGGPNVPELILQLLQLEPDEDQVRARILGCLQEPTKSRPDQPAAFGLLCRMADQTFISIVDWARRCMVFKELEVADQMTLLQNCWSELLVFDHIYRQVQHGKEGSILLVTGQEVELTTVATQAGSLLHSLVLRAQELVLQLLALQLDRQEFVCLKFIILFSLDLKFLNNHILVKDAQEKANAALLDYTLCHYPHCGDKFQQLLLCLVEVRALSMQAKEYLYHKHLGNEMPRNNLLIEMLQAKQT
Assay Comment: SF1 (NR5A1) inverse agonists, counter-screen for LRH-1 inverse agonist project, cell-based, luminescence, high throughput (AID 651614);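 also: cells cotransfected with StAR promoter reporter and SF1 expression vector; 0% = vehicle on cells with receptor and 100% = vehicle on cells lacking receptor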
Study Conditions: cell-based SF1 luciferase reporter, at 3.6 µM
Calls of active or inactive are those of the source. Rule as the data show it: active = inhibition above about 44%; inactive = the rest.
Your reply should match one of these outcome classes. true (1) (active), false (0) (inactive)

[
  {
    "Compound": "CC[C@]1(O)C[C@@H]2CN(CCc3c([nH]c4ccccc34)[C@@](C(=O)OC)(c3cc4c(cc3OC)N(C)[C@H]3[C@@](O)(C(=O)OC)[C@H](OC(C)=O)[C@]5(CC)C=CCN6CC[C@]43[C@@H]65)C2)C1",
    "Assigned Category": "true (1)"
  },
  {
    "Compound": "CCOc1ccc(NC(=O)CSc2nncc(=O)[nH]2)cc1",
    "Assigned Category": "true (1)"
  },
  {
    "Compound": "O=C(NCCN1CCOCC1)c1ccc2c(c1)N(Cc1ccccc1F)C(=O)CS2",
    "Assigned Category": "false (0)"
  },
  {
    "Compound": "O=C(COc1ccc(Nc2ccccc2)cc1)Nc1ccncc1",
    "Assigned Category": "true (1)"
  }
]

Q. Name the outcome recorded for `COc1ccc(CNC(=O)c2cccc3c(-c4cccnc4)coc23)cc1OC` in the assay.
A. true (1)

Q. Name the outcome recorded for `CCS(=O)(=O)N1Cc2cc(C(=O)NCC3CC3)nc(-c3cccc(-c4cccnc4)c3)c2[C@@H]1CCO` in the assay.
A. false (0)

Q. Name the outcome recorded for `COc1cc(/C=C/C(=O)c2ccc(C)cc2)ccc1OCC#N` in the assay.
A. false (0)

Q. Name the outcome recorded for `Nc1ccc(Oc2cccc(Oc3ccc(N)cc3)c2)cc1` in the assay.
A. true (1)

Q. Name the outcome recorded for `CN(c1ncnc(N)c1[N+](=O)[O-])C1CCCCC1` in the assay.
A. true (1)

Q. Name the outcome recorded for `CC(=O)N1CCN(c2ccc(Oc3ccc([N+](=O)[O-])c(C(F)(F)F)c3)cc2)CC1` in the assay.
A. true (1)

Q. Name the outcome recorded for `COc1ccc(OC)c(C2=NS(=O)(=O)N(C)C(C(=O)Nc3ccc(C(C)=O)cc3)=C2)c1` in the assay.
A. true (1)

Q. Name the outcome recorded for `CC(=O)Nc1ccc(NC(=O)COC(=O)c2c(C)nn(-c3ccccc3)c2C)cc1` in the assay.
A. true (1)

Q. Name the outcome recorded for `Cc1cccc(NC(=O)c2ccc([N+](=O)[O-])o2)c1` in the assay.
A. true (1)

Q. Name the outcome recorded for `O=C1CCc2cc(OCCCCc3nnnn3C3CCCCC3)ccc2N1` in the assay.
A. true (1)

Q. Name the outcome recorded for `O=C(CN1CCN(c2ncccn2)CC1)N1CCCc2c1c(=O)oc1ccc(O)cc21` in the assay.
A. true (1)

Q. Name the outcome recorded for `CCCCCCCn1ccc(=N)cc1` in the assay.
A. true (1)

Q. Name the outcome recorded for `CC(C)(C)c1ccc(C(=O)O/N=C(\N)c2ccccc2)cc1` in the assay.
A. true (1)

Q. Name the outcome recorded for `NCCCNc1nc(N)c([N+](=O)[O-])c(NC2CCCCC2)n1` in the assay.
A. true (1)

Q. Name the outcome recorded for `C=CC(=O)N1C/C(=C/c2ccccc2)C(=O)/C(=C\c2ccccc2)C1` in the assay.
A. true (1)
